Below: a set of entries, each annotated with reported bioavailability.
Assay: Oral bioavailability in Sprague-Dawley rat at 10 mg/kg after 15 to 240 mins by LC-MS/MS method
Type: ADME, organism-based
Settings: in vivo
OBSERVABLE: bioavailability (%)

{"COMPOUND": "CCOC(=O)OC[C@H]1O[C@@H](Oc2nn(C(C)C)c(C)c2Cc2ccc(OC(C)C)cc2)[C@H](O)[C@@H](O)[C@@H]1O [REMOGLIFLOZIN ETABONATE]", "OBSERVED_MEASUREMENT": 27}
{"COMPOUND": "Cc1c(Cc2ccc(OC(C)C)cc2)c(O[C@@H]2O[C@H](COC(=O)OCC(C)C)[C@@H](O)[C@H](O)[C@H]2O)nn1C(C)C", "OBSERVED_MEASUREMENT": 32}
{"COMPOUND": "COC(=O)OC[C@H]1O[C@@H](Oc2nn(C(C)C)c(C)c2Cc2ccc(OC(C)C)cc2)[C@H](O)[C@@H](O)[C@@H]1O", "OBSERVED_MEASUREMENT": 27}

The measurements presented in this section are drawn from ChEMBL document CHEMBL3880397.
